system_name: Aβ1-40 peptide (monomeric start material of the nucleation assay)
protocol_description: cell-based or functional assay
Square brackets hold non-standard residues; d marks the D form. Ends that are not written are not given here.
parameter: Nucleation assay Δ lag at 2.5 µM compound

{"binder": "{N,N‑dimethyl}-[dA][dF][dF][dV][dL]-NH2 (also: TFA salt) [PPI-913: TFA • N,N-dimethyl-(affvl)-NH2]", "assay_result": "1 ratio of lag time to control"}
{"binder": "G[dA][dF][dF][dV][dL]-NH2 (not fully specified (N-terminus); printed as N-isopropyl-(Gly-D-Ala-D-Phe-D-Phe-D-Val-D-Leu)-NH2; also: TFA salt) [PPI-970: TFA • N-isopropyl-(Gaffvl)-NH2]", "assay_result": "> 5 ratio of lag time to control"}
{"binder": "{N,N‑diethyl}-G[dA][dF][dF][dV][dL]-NH2 (also: TFA salt) [PPI-1005: TFA • N,N-diethyl-(Gaffvl)-NH2]", "assay_result": "3 ratio of lag time to control"}
{"binder": "{N‑methyl}-G[dA][dF][dF][dV][dL]-NH2 (also: TFA salt) [PPI-968: TFA • N-methyl-(Gaffvl)-NH2]", "assay_result": "> 5 ratio of lag time to control"}
{"binder": "H-[dL][dV][dF][dF][dA]-NMe2 (also: TFA salt) [PPI-993: TFA • H-(lvffa)-dimethylamide]", "assay_result": "1 ratio of lag time to control"}

FYI, the data here is from patent US20030236197A1.
